Kindly supply the reported IC50 values for the records listed here.
# assay system: C5aR (Homo sapiens (Human))
# assay info: Chemotaxis assay using U937 cells (C5aR mediated migration)
# applied conditions: read-out: Mig IC50

Supply recorded IC50 for CCc1cccc(CC)c1-n1nc2c(c1-c1cc(F)c(N)cc1F)CN(Cc1ccc(C(F)(F)F)cc1C(F)(F)F)CC2 here.
5 to 50 nM

Supply recorded IC50 for Cc1cccc(C)c1-n1nc2c(c1-c1cc(F)c(NC(N)=O)cc1F)CN(c1ncccc1Cl)CC2 here.
≤ 5 nM

Supply recorded IC50 for Cc1cccc(OCC(C)C)c1-n1nc2c(c1-c1ccc(NC(N)=O)cc1)CN(c1ccc(Cl)c(C(F)(F)F)c1)CC2 here.
5 to 50 nM

Supply recorded IC50 for Cc1cccc(C)c1-n1nc2c(c1-c1cc(F)c(NC(N)=O)cc1F)CN(Cc1ccc(C(F)(F)F)cc1C(F)(F)F)C(C)(C)C2 here.
≤ 5 nM

Supply recorded IC50 for Cc1cccc(OCC(C)C)c1-n1nc2c(c1-c1ccc(NC(N)=O)cc1)CN(Cc1c(C(F)(F)F)ccc(Cl)c1Cl)CC2 here.
≤ 5 nM

* * *

# assay system: UniProt P21730
# assay info: Chemotaxis assay using U937 cells (C5aR mediated migration)
# Assay type: cell-based
# applied conditions: read-out: Mig IC50
pIC50: −log10 of the molar value.
endpoint: pIC50

Supply recorded pIC50 for Cc1cccc(OCC(C)C)c1-n1nc2c(c1-c1ccc(NC(N)=O)cc1)CN(C(=O)c1ccccc1C(C)C)CC2 here.
6.30 to 7.30

Supply recorded pIC50 for CCc1cccc(CC)c1-n1nc2c(c1-c1cc(F)c(NC(N)=O)cc1F)CN(Cc1ccc(C(F)(F)F)cc1C)CC2 here.
≥ 8.30

Supply recorded pIC50 for Cc1cccc(OCC(C)C)c1-n1nc2c(c1-c1ccc(NC(N)=O)cc1)CN(Cc1cccc(C(C)(C)C)c1)CC2 here.
7.30 to 8.30

Supply recorded pIC50 for CC(C)COc1ccccc1-n1nc2c(c1-c1cc(F)c(NC(N)=O)cc1F)CN(c1ncc(C(F)(F)F)cc1F)CC2 here.
≥ 8.30

Supply recorded pIC50 for COc1cc(NC(N)=O)c(F)cc1-c1c2c(nn1-c1c(C)cccc1OCC(C)C)CCN(c1ncc(C(C)C)cc1F)C2 here.
≥ 8.30

Supply recorded pIC50 for Cc1cccc(OCC(C)C)c1-n1nc2c(c1-c1cc(F)c(NC(N)=O)cc1F)CN(c1ncc(Cl)cc1Cl)CC2 here.
≥ 8.30

Supply recorded pIC50 for CCc1cccc(CC)c1-n1nc2c(c1-c1ccc(NC(N)=O)cc1)CN(Cc1c(Cl)cccc1C(F)(F)F)CC2 here.
7.30 to 8.30

Supply recorded pIC50 for Cc1cccc(OCC(C)C)c1-n1nc2c(c1-c1ccc(NC(N)=O)cc1)CN(Cc1ccccc1Cl)CC2 here.
7.30 to 8.30

Supply recorded pIC50 for COc1cccc(C)c1-n1nc2c(c1-c1ccc(N)cc1)CN(c1ccccc1C)CC2 here.
6.30 to 7.30

Supply recorded pIC50 for Cc1cccc(OC(C)C)c1-n1nc2c(c1-c1ccc(N)cc1)CN(c1ccccc1C(C)C)CC2 here.
7.30 to 8.30

Supply recorded pIC50 for Cc1cccc(C)c1-n1nc2c(c1-c1ccc(C(N)=O)cc1)CN(c1ccccc1C(C)C)CC2 here.
7.30 to 8.30

Supply recorded pIC50 for Cc1ccc(C(C)(C)C)cc1N1CCc2nn(-c3c(C)cccc3OC(C)C)c(-c3ccc(NC(N)=O)cc3)c2C1 here.
≥ 8.30

Supply recorded pIC50 for CC(=O)Nc1cc(F)c(-c2c3c(nn2-c2c(C)cccc2C)CCN(c2ncc(Cl)cc2Cl)C3)cc1F here.
6.30 to 7.30

* * *

Kindly supply the reported IC50 values for the records listed here.
# assay system: C5aR (Homo sapiens (Human), UniProt P21730)
# Sequence (P21730 whole entry): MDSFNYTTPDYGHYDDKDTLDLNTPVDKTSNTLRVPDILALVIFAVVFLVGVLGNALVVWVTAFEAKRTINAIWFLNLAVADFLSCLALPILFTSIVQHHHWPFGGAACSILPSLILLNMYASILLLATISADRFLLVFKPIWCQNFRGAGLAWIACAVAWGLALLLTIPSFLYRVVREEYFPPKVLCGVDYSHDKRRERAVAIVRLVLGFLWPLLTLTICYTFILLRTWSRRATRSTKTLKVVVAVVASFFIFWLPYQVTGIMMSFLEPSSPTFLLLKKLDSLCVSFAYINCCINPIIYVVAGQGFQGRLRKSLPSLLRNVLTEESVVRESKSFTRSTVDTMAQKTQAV
# assay info: Chemotaxis assay using U937 cells (C5aR mediated migration)
# applied conditions: read-out: Mig IC50

Supply recorded IC50 for CCc1cccc(CC)c1-n1nc2c(c1-c1cc(F)c(NC(N)=O)cc1F)CN(Cc1cccn(C)c1=O)CC2 [Example 1.041] here.
> 500 nM

Supply recorded IC50 for Cc1cccc(OCC(C)C)c1-n1nc2c(c1-c1ccc(NC(N)=O)cc1)CN(Cc1ccc(F)cc1Cl)CC2 [Example 1.326] here.
≤ 5 nM

Supply recorded IC50 for Cc1cccc(OCC(C)C)c1-n1nc2c(c1-c1ccc(NC(N)=O)cc1)CN(CC(C)(C)O)CC2 [Example 1.389] here.
> 500 nM

Supply recorded IC50 for COc1cccc(C)c1-n1nc2c(c1-c1ccc(N)cc1)CN(c1ccccc1C(C)C)CC2 [Example 1.486] here.
50 to 500 nM

Supply recorded IC50 for CCc1cccc(CC)c1-n1nc2c(c1-c1ccc(NC(N)=O)c(F)c1)CN(c1ncc(Cl)cc1Cl)CC2 [Example 1.227] here.
≤ 5 nM

Supply recorded IC50 for CCc1cccc(C)c1-n1nc2c(c1-c1ccc(NC(N)=O)cc1)CN(c1cc(C(C)(C)C)ccc1C)CC2 [Example 1.380] here.
5 to 50 nM

Supply recorded IC50 for CCc1cccc(CC)c1-n1nc2c(c1-c1cc(F)c(NC(N)=O)cc1F)CN(Cc1ccc(Cl)cc1C(F)(F)F)[C@@H](C)C2 [Example 1.015] here.
≤ 5 nM

Supply recorded IC50 for CCc1cccc(CC)c1-n1nc2c(c1-c1cc(F)c(NC(N)=O)cc1F)CN(CC)C(C)(C)C2 [Example 1.009] here.
5 to 50 nM

Supply recorded IC50 for Cc1ccc(C(C)C)nc1N1CCc2nn(-c3c(C)cccc3OCC(C)C)c(-c3ccc(NC(N)=O)cc3)c2C1 [Example 1.347] here.
≤ 5 nM

Supply recorded IC50 for COc1cccc(C)c1-n1nc2c(c1-c1ccc(N)cc1)CN(c1cc(C(C)(C)C)ccc1C)CC2 [Example 1.469] here.
50 to 500 nM

Supply recorded IC50 for CCc1cccc(CC)c1-n1nc2c(c1-c1cc(F)c(NC(N)=O)cc1C)CN(C(C)c1ccccc1C(F)(F)F)CC2 (stereo not drawn) [Example 1.197] here.
≤ 5 nM

Supply recorded IC50 for Cc1cccc(F)c1CN1CCc2nn(-c3c(C)cccc3OCC(C)C)c(-c3ccc(NC(N)=O)cc3)c2C1 [Example 1.360] here.
≤ 5 nM

* * *

# assay system: C5aR (Homo sapiens (Human), UniProt P21730)
# assay info: Chemotaxis assay using U937 cells (C5aR mediated migration)
# applied conditions: read-out: Mig IC50
endpoint: IC50

Using C5aR (Homo sapiens (Human), UniProt P21730) as the test system, report measured IC50 of CCc1cccc(CC)c1-n1nc2c(c1-c1cc(F)c(NC(N)=O)cc1F)CN(C(C)(C)C)CC2 .
5 to 50 nM

Using C5aR (Homo sapiens (Human), UniProt P21730) as the test system, report measured IC50 of CCc1cccc(CC)c1-n1nc2c(c1-c1cc(F)c(NC(N)=O)cc1F)CN(Cc1cc(C(F)(F)F)ccc1Cl)CC2 .
≤ 5 nM

Using C5aR (Homo sapiens (Human), UniProt P21730) as the test system, report measured IC50 of Cc1cccc(OCC(C)C)c1-n1nc2c(c1-c1ccc(NC(N)=O)cc1)CN(CC(C)C)CC2 .
50 to 500 nM

Using C5aR (Homo sapiens (Human), UniProt P21730) as the test system, report measured IC50 of COc1cccc(C)c1-n1nc2c(c1-c1ccc(N(C)C)cc1)CN(c1ccccc1C)CC2 .
> 500 nM

Using C5aR (Homo sapiens (Human), UniProt P21730) as the test system, report measured IC50 of CCc1cccc(CC)c1-n1nc2c(c1-c1cc(F)c(NC(N)=O)cc1F)CN(C(C(N)=O)c1ccccc1)CC2 (stereo not drawn) .
> 500 nM

Using C5aR (Homo sapiens (Human), UniProt P21730) as the test system, report measured IC50 of CCc1cccc(CC)c1-n1nc2c(c1-c1ccc(NC(N)=O)cc1)CN(Cc1c(C)cccc1C)CC2 .
5 to 50 nM

Using C5aR (Homo sapiens (Human), UniProt P21730) as the test system, report measured IC50 of Cc1cccc(OCC(C)C)c1-n1nc2c(c1-c1ccc(NC(N)=O)cc1)CN(C(=O)C1CCCCC1)CC2 .
> 500 nM

Using C5aR (Homo sapiens (Human), UniProt P21730) as the test system, report measured IC50 of Cc1cccc(OCC(C)C)c1-n1nc2c(c1-c1ccc(NC(N)=O)c(F)c1)CN(c1cc(F)cnc1F)CC2 .
5 to 50 nM

Using C5aR (Homo sapiens (Human), UniProt P21730) as the test system, report measured IC50 of CC(C)COc1cccc(F)c1-n1nc2c(c1-c1cc(F)c(NC(N)=O)cc1F)CN(c1ncc(Cl)cc1Cl)CC2 .
≤ 5 nM

* * *

# assay system: C5aR (Homo sapiens (Human), UniProt P21730)
# assay info: Chemotaxis assay using U937 cells (C5aR mediated migration)
# applied conditions: read-out: Mig IC50
endpoint: IC50

Supply recorded IC50 for Cc1cccc(OCC(C)C)c1-n1nc2c(c1-c1ccc(NC(N)=O)cc1)CN(c1nc(C(F)(F)F)ccc1C(F)(F)F)CC2 here.
≤ 5 nM

Supply recorded IC50 for CCc1cccc(CC)c1-n1nc2c(c1-c1cc(F)c(NC(N)=O)cc1F)CN(Cc1c(F)cc(C(F)(F)F)cc1C(F)(F)F)CC2 here.
≤ 5 nM

Supply recorded IC50 for Cc1cccc(OCC(C)C)c1-n1nc2c(c1-c1cc(F)c(NC(N)=O)cc1F)CN(c1ncc(C(F)(F)F)cn1)CC2 here.
≤ 5 nM

Supply recorded IC50 for CCc1cccc(CC)c1-n1nc2c(c1-c1cc(F)c(NC(N)=O)cc1F)CN(Cc1cc(F)ccc1F)CC2 here.
≤ 5 nM

Supply recorded IC50 for Cc1cccc(OCC(C)C)c1-n1nc2c(c1-c1ccc(NC(N)=O)cc1)CN(C(C)c1ccc(C(F)(F)F)cc1)CC2 (centres unmarked) [Example 1.303] here.
5 to 50 nM

Supply recorded IC50 for Cc1cccc(C)c1-n1nc2c(c1-c1ccc(N)cc1)CN(c1ccccc1C(C)(C)C)CC2 here.
5 to 50 nM

Supply recorded IC50 for Cc1cccc(Cl)c1CN1CCc2nn(-c3c(C)cccc3OCC(C)C)c(-c3ccc(NC(N)=O)cc3)c2C1 here.
≤ 5 nM

Supply recorded IC50 for CCc1cccc(CC)c1-n1nc2c(c1-c1ccc(NC(N)=O)c(F)c1)CN(CC1CCCC1)CC2 here.
≤ 5 nM
